# Tested on: 786-0 renal
# methodSummary: NCI tumour cell line growth inhibition, 48 h
quantity: GI50

Challenge: For the compound "COC(=O)/C=C1/SC(=Nc2ccc(F)cc2)N(CCc2c[nH]c3ccc(O)cc23)C1=O" , give its measured GI50 value.
Response given: 6.85 µM

Challenge: For the compound "CC(C)Oc1ccc(-c2nn([C@@H](C)c3oc4ccc(F)cc4c(=O)c3-c3cccc(F)c3)c3ncnc(N)c23)cc1F" , give its measured GI50 value.
Response given: 12.8 µM

Challenge: For the compound "CNCCCNc1nc2ccccc2c2c(=O)c3cc(F)ccc3sc12" , give its measured GI50 value.
Response given: 1.44 µM

Challenge: For the compound "CC(=O)c1c(Nc2cccc(F)c2)[nH]c2c(Cl)cc(Cl)c(Cl)c2c1=O" , give its measured GI50 value.
Response given: 0.471 µM

Challenge: For the compound "O=C(O)c1ccc(NCc2nc3cc(Cl)c(Cl)cc3[nH]2)cc1" , give its measured GI50 value.
Response given: > 100 µM

Challenge: For the compound "O=C(CN(/C=C/C(=O)C(F)(F)F)c1ccc(Cl)cc1)c1ccc(F)cc1" , give its measured GI50 value.
Response given: 18 µM

Challenge: For the compound "COc1cc(OC)c(/C=C/c2cc[n+](C)c3ccccc23)c(OC)c1" , give its measured GI50 value.
Response given: 4.4 µM

Challenge: For the compound "COc1cc2cnc3c(c2c(OC)c1OC)Cc1cc2c(cc1-3)OCO2" , give its measured GI50 value.
Response given: 3.23 µM

Challenge: For the compound O=C(OCC1OC(n2cc(C(F)(F)F)c(=O)[nH]c2=O)CC1OC(=O)c1ccc([N+](=O)[O-])cc1)c1ccc([N+](=O)[O-])cc1 (centres undefined) , give its measured GI50 value.
Response given: 3.11 µM

* * *

For each entry below, report its TGI value.
# System: COLO 205 colon
# methodSummary: NCI tumour cell line growth inhibition, 48 h
Where a SMILES comes first, the peptide text is derived from it. [ ]: non-standard residue; d: D form. The star is where a group is joined. ξ: configuration not given here. NMeF = CN[C@@H](Cc1ccccc1)C(=O)O; NMeV = CN[C@H](C(=O)O)C(C)C; ξNMeN = CNC(CC(N)=O)C(=O)O; NMeA = CN[C@@H](C)C(=O)O; ξNMeV = CNC(C(=O)O)C(C)C; Boc = CC(C)(C)OC(=O)*

Challenge: // output TGI; input CCC(C)NC(=S)N/N=C(\C)c1nc2ncccc2[nH]1 (stereo not drawn) ; system COLO 205 colon
Response given: > 100 µM

Challenge: // output TGI; input "O=C1/C=C/[C@@H](O)[C@@H]2C[C@@H](O)C[C@H]2/C=C/CCC[C@H](CCc2ccccc2)O1" ; system COLO 205 colon
Response given: 0.0369 µM

Challenge: // output TGI; input COc1ccc(/C=C/C2C(C#N)=C(N)OC3=C2C(=O)CCC3)cc1 (stereo not drawn) ; system COLO 205 colon
Response given: 41.2 µM

Challenge: // output TGI; input O=C(NC(Cc1ccc(I)cc1)C(=O)O)c1cccc(Br)c1 (stereo not drawn) ; system COLO 205 colon
Response given: > 100 µM

Challenge: // output TGI; input CSc1nc(NC2OC(COC(C)=O)C(OC(C)=O)C(OC(C)=O)C2OC(C)=O)c(N=CC=Nc2c(NC3OC(COC(C)=O)C(OC(C)=O)C(OC(C)=O)C3OC(C)=O)nc(SC)[nH]c2=O)c(=O)[nH]1 (stereo not drawn) ; system COLO 205 colon
Response given: > 100 µM

Challenge: // output TGI; input COc1cc(C2Oc3cc(-c4oc5cc(O)cc(O)c5c(=O)c4O)ccc3OC2CO)ccc1O (stereo not drawn) ; system COLO 205 colon
Response given: 75.3 µM

Challenge: // output TGI; input "COC[C@@H]1[C@H]2OC(C)(C)O[C@H]2C(=O)N1C(=O)c1ccc(OC)cc1" ; system COLO 205 colon
Response given: > 100 µM

Challenge: // output TGI; input COC(=O)[C@H](C)N(C)C(=O)C(CC(N)=O)N(C)C(=O)[C@H](Cc1ccccc1)N(C)C(=O)[C@@H]1CCCN1C(=O)[C@H](C(C)C)N(C)C(=O)C(C(C)C)N(C)C(=O)[C@@H](NC(=O)OC(C)(C)C)C(C)C (stereo partly drawn) (Boc-V[ξNMeV][NMeV]P[NMeF][ξNMeN][NMeA]-OMe) ; system COLO 205 colon
Response given: > 75 µM

* * *

# Tested on: OVCAR-8 ovarian
# methodSummary: NCI tumour cell line growth inhibition, 48 h; in the data active = GI50 below about 0.43 µM; inactive = the rest
Outcomes you can answer with include only these: active, inactive

Challenge: Record request — test call for "Cn1c(-c2ccncc2)c(-c2ccc(F)cc2)c2ncccc21"
Response given: inactive

Challenge: Record request — test call for "Clc1ccc(Cn2c(CN3CCCC3)nc3ccccc32)cc1"
Response given: inactive

Challenge: Record request — test call for "Cn1ccc2c1SSSSS2"
Response given: inactive

Challenge: Record request — test call for COc1ccc(/C=C/C2C(C#N)=C(N)OC3=C2C(=O)CCC3)cc1 (stereo not drawn)
Response given: inactive

Challenge: Record request — test call for "COc1cc(/C=C/C(=O)c2ccccc2)cc(OC)c1OC"
Response given: inactive

Challenge: Record request — test call for COc1ccc(C2C=C(c3ccc(OC)c(OC)c3)N=C3SC=CN32)c(Br)c1 (stereo not drawn)
Response given: inactive

Challenge: Record request — test call for "Cc1ccc(CN(C)c2ccc(CO)c(Cl)c2)cc1"
Response given: inactive

Challenge: Record request — test call for "COc1ccc2c(c1OC)-c1c(c3ccc([N+](=O)[O-])cc3c(=O)n1CCCN)C2=O"
Response given: inactive

Challenge: Record request — test call for "CC(=O)c1c(Nc2cccc(F)c2)[nH]c2c(Cl)cc(Cl)c(Cl)c2c1=O"
Response given: active

Challenge: Record request — test call for "COc1cc(/C=C2\C(=O)Nc3ccccc32)cc(OC)c1O"
Response given: inactive

Challenge: Record request — test call for "CCCN1C/C(=C\c2ccc(O)c(OC)c2)C(=O)/C(=C/c2ccc(O)c(OC)c2)C1"
Response given: inactive

Challenge: Record request — test call for "N/C(=N\N=C/c1c2ccccc2c(Cl)c2ccccc12)NO"
Response given: inactive

Challenge: Record request — test call for "C[CH2][Sn]([CH2]C)([O]C(=O)c1c(F)cccc1F)[O][Sn]([CH2]C)([CH2]C)[O]C(=O)c1c(F)cccc1F"
Response given: inactive

Challenge: Record request — test call for "Cc1oc2c(C(=O)N/N=C\c3ccc(O)cc3O)c[nH]c2c1C"
Response given: inactive

Challenge: Record request — test call for "Cc1ccc(C2=NN(c3ccc(S(C)(=O)=O)cc3)C(=O)CC2)cc1"
Response given: inactive

Challenge: Record request — test call for CC(C)N(C(C)C)[PH+]1O[PH+](N(C(C)C)C(C)C)O[PH+](N(C(C)C)C(C)C)O[PH+](N(C(C)C)C(C)C)O1.[C-]#[O+].[C-]#[O+].[C-]#[O+].[C-]#[O+].[C-]#[O+].[C-]#[O+].[C-]#[O+].[C-]#[O+].[Mo].[Mo] (stereo not drawn)
Response given: inactive

Challenge: Record request — test call for "C=[CH][Sn]([CH]=C)([S]c1cccc2cccnc12)[S]c1cccc2cccnc12"
Response given: active

Challenge: Record request — test call for "Cc1cc(=O)n2nnc3c4ccccc4ccc3n12"
Response given: inactive

* * *

# System: SK-OV-3 ovarian
# methodSummary: NCI tumour cell line growth inhibition, 48 h
For each entry below, report its TGI value.
Express it in µM; write the number only.

Challenge: For the molecule "Cc1ccc(CN(C)c2ccc(CO)c(Cl)c2)cc1" , give its measured TGI value.
Response given: 30.3

Challenge: For the molecule "Cc1nc2cc(-c3nn(C(C)C)c4ncnc(N)c34)ccc2o1" , give its measured TGI value.
Response given: 0.0446

Challenge: For the molecule "N/C(=N\N=C/c1c2ccccc2c(Cl)c2ccccc12)NO" , give its measured TGI value.
Response given: 10.5

Challenge: For the molecule "Clc1ccc(Cn2c(CN3CCCC3)nc3ccccc32)cc1" , give its measured TGI value.
Response given: 48.8

* * *

# Tested on: M14 melanoma
# methodSummary: NCI tumour cell line growth inhibition, 48 h
Returns MET if the recorded TGI is greater than or equal to 30 µM, and NOT MET otherwise.

Challenge: Check if TGI >= 30 µM (inclusive). Item: "Cn1cc(-c2csc(-c3c[nH]c4ccccc34)n2)c2cnccc21"
Response given: NOT MET

Challenge: Check if TGI >= 30 µM (inclusive). Item: Cc1c2c(n(C)c1C)C(=O)C1C(C2=O)C2(C)c3ccccc3C1(C)c1ccccc12 (stereo not given)
Response given: MET

Challenge: Check if TGI >= 30 µM (inclusive). Item: "CCCCCCCCCCCC[C@@H](O)[C@H]1CC[C@H]([C@H]2CC[C@H]([C@H](O)CC[C@H](O)CCCCCCCC3=C[C@H](C)OC3=O)O2)O1"
Response given: NOT MET

Challenge: Check if TGI >= 30 µM (inclusive). Item: COc1cc(O)c2c(c1)OCC1(Cc3cc(OC)c(OC)cc31)C2=O (stereo not given)
Response given: MET

Challenge: Check if TGI >= 30 µM (inclusive). Item: "Cc1cc(=O)[nH]c(S(=O)(=O)NC(=S)Nc2ccc(Cl)cc2)n1"
Response given: MET

Challenge: Check if TGI >= 30 µM (inclusive). Item: "O=C(O)c1ccc(NCc2nc3cc(Cl)c(Cl)cc3[nH]2)cc1"
Response given: MET

Challenge: Check if TGI >= 30 µM (inclusive). Item: O=C1C(Cl)C2(CC(/C=C/c3cccs3)=NN2c2cccc(S(=O)(=O)O)c2)N1c1nc2ccccc2s1 (stereo not given)
Response given: MET

Challenge: Check if TGI >= 30 µM (inclusive). Item: "Cn1ccc2c1SSSSS2"
Response given: MET

Challenge: Check if TGI >= 30 µM (inclusive). Item: CCOP(=O)(O)CC1OC(CO)C(O)C1O (stereo not given)
Response given: MET

Challenge: Check if TGI >= 30 µM (inclusive). Item: "O=C1Nc2c(Cl)cc(Cl)cc2C1=O"
Response given: MET

Challenge: Check if TGI >= 30 µM (inclusive). Item: CC(=O)NC1C(OCc2ccccc2)OC(CO)C(O)C1OC(C)C(=O)NC(C)C(=O)N[C@@H](CCC(=O)OCCCNC1c2ccccc2Nc2cccc([N+](=O)[O-])c21)C(N)=O (stereo not given in full)
Response given: NOT MET

Challenge: Check if TGI >= 30 µM (inclusive). Item: Nc1nc(Cl)c(N=Nc2ccc(Cl)cc2)c(NCC2(CO)CCC(CCc3ccccc3)C2)n1 (stereo not given)
Response given: MET

Challenge: Check if TGI >= 30 µM (inclusive). Item: "CC(=O)Oc1cc(C(C)C)c(OCCN(C)C)cc1C"
Response given: MET

Challenge: Check if TGI >= 30 µM (inclusive). Item: "CC(C)N(CCCNC(=O)Nc1ccc(C(C)(C)C)cc1)C[C@H]1O[C@@H](n2ccc3c(N)ncnc32)[C@H](O)[C@@H]1O"
Response given: MET

Challenge: Check if TGI >= 30 µM (inclusive). Item: "CCCCCCCCCCCCCC(=O)NCO"
Response given: MET

Challenge: Check if TGI >= 30 µM (inclusive). Item: "CN(C)CCONC(=O)C12CC3CC(CC(C3)C1)C2"
Response given: MET

Challenge: Check if TGI >= 30 µM (inclusive). Item: CC(=O)OCC(OC(C)=O)C(OC(C)=O)C(OC(C)=O)C(=O)CNn1c(-c2ccc(C)cc2)nc2ccccc2c1=O (stereo not given)
Response given: MET

Challenge: Check if TGI >= 30 µM (inclusive). Item: "O=C1C=C(Nc2ccc(Br)cc2)c2ccccc2C1=O"
Response given: NOT MET
